For each of the molecules below, state its GI50.
# System: RPMI-8226
# Test protocol: NCI tumour cell line growth inhibition, 48 h
The source made the active and inactive calls. Rule as the data show it: active = GI50 up to about 1.1 µM and inactive = higher.

Query string: Tell me GI50 of `c1cc2c(cc1NC1=NCCO1)OCO2` when tested on RPMI-8226.
Result string: > 100 µM (inactive)

Query string: Look up RPMI-8226 data: GI50 of COC(=O)C1C(O)C(C)C(O)OC1C(C)C(O)C(C)/C=C\C=C(/C)C(=O)Nc1c(C)c(OC(C)=O)c2c(c1O)C(=O)C(C)=C1OCOC(/C(C)=C/C(C)=O)=C12 (centres undefined) , then report it.
Result string: 9.48 µM (inactive)

Query string: State GI50 (RPMI-8226) of NC(=O)C1=CC2C3C=CC2(O)C(=O)OC3O1 (centres undefined) .
Result string: 1.57 µM (inactive)

Query string: Provide RPMI-8226 GI50 reading for `CCOc1ccc(-c2nc(-c3oc4ccccc4c(=O)c3OC(C)=O)cs2)cc1` .
Result string: > 10 µM (inactive)

Query string: Please tell me the measured GI50 for `Oc1c2c(nc3cc4c(cc13)OCO4)-c1ccccc1CC2` ; system: RPMI-8226.
Result string: > 100 µM (inactive)

Query string: Quote GI50 with test system RPMI-8226 for O=C1[C@H]2ON(c3ccccc3)C(c3ccccc3Cl)[C@H]2C(=O)N1c1ccc(Cc2ccc(N3C(=O)[C@@H]4ON(c5ccccc5)C(c5ccccc5Cl)[C@@H]4C3=O)cc2)cc1 (some centres undefined)
Result string: > 100 µM (inactive)

Query string: For RPMI-8226, give GI50 of the listed molecule: `CC(C)Oc1c(N(Cc2ccccc2)c2ccccc2C2SCCCS2)c(=O)c1=O`
Result string: 4.24 µM (inactive)

Query string: Determine reported GI50 for COc1cc(/C=C2\CCC(CN(C)C)C2=O)ccc1OC(=O)c1ccccc1 (centres undefined) ; test system: RPMI-8226.
Result string: 2.31 µM (inactive)

Query string: // output GI50; input CC1(C)OC2CC3COC(=O)C3CC2O1 (centres undefined) ; system RPMI-8226
Result string: > 100 µM (inactive)

====

# System: COLO 205
# Test protocol: NCI tumour cell line growth inhibition, 48 h
Activity calls are given as the source filed them. Rule as the data show it: active = GI50 up to about 1.1 µM and inactive = higher.
Reply using exactly one outcome from 1.0 for active, 0.0 for inactive

Query string: // return assay outcome for `NS(=O)(=O)c1ccc(NC(=O)c2cccn3c(=O)c4ccccc4nc23)cc1`
Result string: 0.0

Query string: Just curious, what result did `CCC(=O)C(CCN1CCC2(CCCc3ccccc32)CC1)(c1ccccc1)c1ccccc1` get here?
Result string: 0.0

Query string: Per the records of this test, what outcome belongs to `O=C1COc2cc(N3CCN(c4cccc(C(F)(F)F)c4)CC3)ccc2N1` ?
Result string: 0.0

Query string: Could you please tell me the result logged for COc1ccc(C(=O)C(C(=O)CCC(=O)Nc2ccc(C)c(C)c2)c2ccc(OC)cc2)cc1 (stereo unspecified) in this assay?
Result string: 0.0

Query string: Given CCCCCCCCC(=O)N(C)C1C2CN3CCC(O2)C13 (stereo unspecified) , state the outcome it received in this test.
Result string: 0.0

Query string: Kindly provide the recorded test outcome for the following compound: `NC(=O)NC(=O)c1cccc(NC(=O)CBr)c1`
Result string: 1.0

Query string: Which outcome was assigned to Nc1ncnc2c1ncn2[C@]1(CO)C=C(CO)C(O)C1O (stereo partly specified) in this test?
Result string: 0.0

Query string: Record lookup: outcome of this test for `COc1ccc(N2C(=O)C(=O)C3(CCCCC3)C2=O)c(OC)c1OC` ?
Result string: 0.0

Query string: // outcome(item) with item = Fc1ccccc1C1CC(c2ccc3ccccc3c2)=Nc2ccccc2S1 (stereo unspecified)
Result string: 0.0

Query string: Which outcome did this test record for the compound CN1CC2=C(N=C(S)NC2c2ccccc2)/C(=C/c2ccccc2)C1 (stereo unspecified) ?
Result string: 0.0

Query string: Identify the outcome logged in this assay for the compound shown: COc1c2ccoc2nc2c(OC)c(OCC(O)C(C)(C)O)ccc12 (stereo unspecified) [EVOXINE]
Result string: 0.0

====

# Test system: COLO 205
# Test protocol: NCI tumour cell line growth inhibition, 48 h
Calls of active or inactive are those of the source. No stated cut-off is given here; in the data, active = GI50 up to about 1.1 µM and inactive = higher.
Respond only with the outcome that fits, drawn from active, inactive

Query string: Call for entry `CNc1cc(OCc2ccccc2)c(OC)cc1C(=O)N1CCC[C@H]1CO` :
Result string: inactive

Query string: Fill in: this test's call for CC(=O)OC(COc1ccc2c(c1)[n+]([O-])nc(N)[n+]2[O-])CN1CCCCC1 (stereo not given) is ___
Result string: inactive

Query string: What did this assay record as the result for CC(=O)CCCCC(=O)Nc1ccc(CC(NC(=O)OC(C)(C)C)C(=O)NCC(=O)OCc2ccccc2)cc1 (stereo not given) ?
Result string: inactive

Query string: For OC1(c2ccc(Cl)cc2)c2ccccc2C2=NCc3ccccc3CN21 (stereo not given) , which call appears in the assay record?
Result string: inactive

Query string: For this compound, state the assay outcome: `CC(=O)Nc1ccc2nc(-c3cccc(Cl)c3)cc(O)c2c1`
Result string: inactive

Query string: Would you mind telling me which call this test gave `CCCOc1ccc(/C=C/C2=[N+](CCO)CCO2)cc1` ?
Result string: inactive

Query string: # lookup: test call for C[C@@H]1CCC2[C@@H](C)C(=O)O[C@@H]3C4C[C@@H]1[C@@]23OO[C@@]4(C)O (stereo not given in full)
Result string: inactive

Query string: Record lookup: outcome of this test for CC[C@@]1(O)C[C@H](OC2CC(N(C)C)C(O)C(C)O2)c2c(cc3c(c2O)C(=O)c2c(O)ccc(O)c2C3=O)[C@H]1C(=O)OC (stereo not given in full) ?
Result string: active

Query string: Could you please tell me the result logged for COc1cc(C2S/C(=C/c3ccccc3)C(=O)N2c2ccc([N+](=O)[O-])cc2)cc(OC)c1OC (stereo not given) in this assay?
Result string: inactive

Query string: Check the results log: what was the call for COC(=O)CCC1=CCC2(SC)C(=O)Nc3cccc1c32 (stereo not given) ?
Result string: inactive

Query string: For `CCOc1ccc2c(c1)c(CC(=O)O)cn2C` , what call appears in the results of this test?
Result string: inactive

Query string: Test call for this compound, please: CC(=O)OC[C@H]1[C@@H]2C(CC[C@]13CO3)OC(=O)CC(C)[C@]2(C)CCc1ccoc1 (stereo not given in full)
Result string: inactive

Query string: Would you mind telling me which call this test gave NNC(N)Nc1ccccc1 (stereo not given) ?
Result string: inactive

Query string: Could you check what this test reported for `Cc1cc(O)c(C(C)C)cc1SC#N` ?
Result string: inactive

Query string: # outcome recorded in this test, key = O=C1N(c2ccccc2)N=C2c3ccncc3C3=NN(c4ccccc4)C(=O)C123 (stereo not given)
Result string: inactive

Query string: Which outcome did this test record for the compound `CCOc1ccccc1/N=N/c1ccc2oc(=O)c(C(=O)Nc3cccc(C)c3)cc2c1` ?
Result string: inactive

Query string: Outcome? `O=C1C(O)=C(CC=C(Cl)Cl)C(=O)c2ccccc21`
Result string: inactive

Query string: Query: recorded result category for C=C1CC(O)C2C(=C)C(=O)OC2C2C(C)C(=O)CC12 (stereo not given) in this test
Result string: inactive

Query string: How was `Cc1c(Cl)nc(Nc2nc3ccccc3[nH]2)nc1Cl` classified in this test?
Result string: inactive

Query string: Please state the recorded outcome for this compound: O=C1[C@H]2ON(c3ccccc3)C(c3ccccc3Cl)[C@H]2C(=O)N1c1ccc(Cc2ccc(N3C(=O)[C@@H]4ON(c5ccccc5)C(c5ccccc5Cl)[C@@H]4C3=O)cc2)cc1 (stereo not given in full)
Result string: inactive

====

For each of the compounds below, state its GI50.
# System: EKVX
# Test protocol: NCI tumour cell line growth inhibition, 48 h
Activity calls are given as the source filed them. Cut-off read from the data, not from the text of the source: active = GI50 up to about 1.1 µM and inactive = higher.

Query string: Tell me GI50 reported for `Nc1nc(-c2ccco2)cc(-c2ccco2)n1`
Result string: > 100 µM (inactive)

Query string: Give reported GI50 value for `O=[N+]([O-])/C(Cl)=C(\Nc1ccccc1)C(Cl)=C(Cl)Cl`
Result string: 39.8 µM (inactive)

Query string: Specify reported GI50 for the compound shown: `O=C(C[n+]1ccccc1)N/N=C(/CCC(=O)N(Cc1ccccc1)Cc1ccccc1)CC(=O)c1ccccc1`
Result string: > 100 µM (inactive)

Query string: Please report the measured GI50 for `CCOC(=O)c1nc2ccccc2nc1Nc1ccc(C(=O)OC)s1`
Result string: > 100 µM (inactive)

Query string: Kindly indicate its recorded GI50. Item: `CCn1c(-c2cc3ccccc3cc2OC(C)=O)n[nH]c1=S`
Result string: 9.95 µM (inactive)

Query string: Provide measured GI50 value, entry: O=C1/C(=C\c2cccc(Oc3ccccc3)c2)SC(c2ccccc2)N1Cc1ccccc1 (stereo not given)
Result string: 28 µM (inactive)

Query string: For the compound `c1cc2cc(Cc3ccc4[nH]ccc4c3)ccc2[nH]1` , report GI50.
Result string: 15.3 µM (inactive)

Query string: Given `CCC(=O)C(CCN1CCC2(CCCc3ccccc32)CC1)(c1ccccc1)c1ccccc1` , respond with its GI50.
Result string: 4 µM (inactive)

Query string: Supply GI50 value. Item: `N#CCCN(CCC#N)c1ccc(/C=C2\N=C(COc3ccc(Cl)cc3Cl)OC2=O)cc1`
Result string: > 100 µM (inactive)

Query string: State its GI50 for this compound: COC(=O)C(=O)C(C(=O)C=C(C)C)C(=O)C(=O)Nc1ccc(Cl)cc1C (stereo not given)
Result string: > 100 µM (inactive)
